Tested on: Colletotrichum lindemuthianum
Test: Colletotrichum lindemuthianum in vitro cell test
Format: cell-based
Settings: 144 h, 20 ppm of active ingredient, 6 days incubation, liquid culture, spectrometric measurement of mycelium growth, read-out: efficacy (inhibition of fungal growth)
measured.quantity: inhibition at 20 ppm

# count of solved cases: 2
In [3]: df
Out[3]:
                                   compound     reading
0  Cc1ncc(Oc2cccc(Cl)c2)c(C2=NOCC(c3ccc4c(c3)CCC4)N2)n1 (racemic)  90 to 100%
1  Cc1ncc(Oc2cccc(C(F)(F)F)c2)c(C2=NOCC(Cc3ccc(C4CC4)cc3C)N2)n1 (racemic)  90 to 100%

Task item: Consider the compound Cc1ccc(C[C@@H]2CON=C(c3nc(C)ncc3Oc3cccc(C4CC4)c3F)N2)c(C)c1 (racemic) and give its measured inhibition at 20 ppm.
Reply: 90 to 100%

Task item: Name the reported inhibition at 20 ppm value associated with the compound C#Cc1cccc(Oc2cnc(C)nc2C2=NOC[C@@H](Cc3ccc(C)cc3C)N2)c1 (racemic)
Reply: 90 to 100%

Task item: Entry under review: Cc1ncc(Oc2cccc(C(F)(F)F)c2)c(C2=NOC[C@@H](Cc3csc(C(F)(F)F)c3)N2)n1 (racemic) . Reported inhibition at 20 ppm?
Reply: 90 to 100%

Task item: Any idea what its inhibition at 20 ppm is? The compound is C=Cc1cccc(Oc2cnc(C)nc2C2=NOC[C@@H](Cc3ccc(C)cc3C)N2)c1 (racemic)
Reply: 90 to 100%

Task item: # input compound: Cc1ncc(Oc2cccc(C(F)(F)F)c2)c(C2=NOC[C@@H](Cc3ccc(C(F)F)cc3Cl)N2)n1 (racemic) ; wanted: its inhibition at 20 ppm
Reply: 90 to 100%
